Cited source: patent US20210032365A1

Each entry below carries its reported kon.
# tgt: T1, human C1s (human, UniProt P09871 16-688)
# T1 construct: also called hC1s; serum-derived human C1s (CompTech)
# T1 sequence: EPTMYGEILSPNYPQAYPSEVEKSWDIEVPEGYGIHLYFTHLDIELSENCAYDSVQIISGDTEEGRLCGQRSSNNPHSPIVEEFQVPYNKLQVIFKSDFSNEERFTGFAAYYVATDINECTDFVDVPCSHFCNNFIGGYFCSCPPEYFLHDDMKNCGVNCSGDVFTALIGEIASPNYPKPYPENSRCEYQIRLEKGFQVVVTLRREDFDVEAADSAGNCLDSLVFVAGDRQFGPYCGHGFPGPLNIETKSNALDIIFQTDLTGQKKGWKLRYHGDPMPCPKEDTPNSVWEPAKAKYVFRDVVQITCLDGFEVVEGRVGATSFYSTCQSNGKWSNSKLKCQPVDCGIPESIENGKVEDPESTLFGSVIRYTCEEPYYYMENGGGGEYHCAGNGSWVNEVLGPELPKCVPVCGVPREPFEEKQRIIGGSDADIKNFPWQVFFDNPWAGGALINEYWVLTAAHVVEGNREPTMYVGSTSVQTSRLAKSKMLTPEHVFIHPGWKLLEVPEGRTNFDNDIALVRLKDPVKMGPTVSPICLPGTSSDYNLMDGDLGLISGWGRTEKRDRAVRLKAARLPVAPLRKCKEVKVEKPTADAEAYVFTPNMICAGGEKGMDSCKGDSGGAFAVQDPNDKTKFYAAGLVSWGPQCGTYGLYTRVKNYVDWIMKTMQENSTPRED
# experimental-protocol: SPR, Ab captured; pH 5.8, 1.2 mM Ca
Report only the number, with the unit M⁻¹ s⁻¹ understood.

binder	kon, M⁻¹ s⁻¹
C1_IPN92H0033-SG4GK/IPN93L0028-SK1 (antibody, human IgG4 S228P, kappa, name in Kabat numbering, V domains shown, also called IPN92H0033/IPN93L0028) VH: EVMLVESGGGLVKPGGSLRLSCAASGFTFSNYAMSWVRQAPGKGLEWVATISSGGSHTYYLDSVKGRFTISRDNSKDTLYLQMNSLRAEDTALYYCARLFTGHAMDYWGQGTLVTVSS VL: QIVLTQSPATLSLSPGERATLSCTASSSVSSSYLHWYQQKPGKAPKLWIYSTSNLASGVPSRFSGSGSGTDYTLTISSLQPEDFATYYCHQYHRHPPITFGQGTKLEIKR	717000

Recorded kon of C1_IPN92H0038-SG4GK/IPN009VK3-SK1 (antibody, human IgG4 S228P, kappa, name in Kabat numbering, V domains shown, also called IPN92H0038/IPN009VK3) VH: EVMLVESGGGLVKPGGSLRLSCAASGFTFSNYAMSWVRQAPGKGLEWVATISSGGSHTYYLDSVKHRFTISRDNSKDTLYLQMNSLRAEDTALYYCARLFTGHAMDYWGQGTLVTVSS VL: QIVLTQSPATLSLSPGERATLSCTASSSVSSSYLHWYQQKPGKAPKLWIYSTSNLASGVPSRFSGSGSGTDYTLTISSLQPEDFATYYCHQYYRLPPITFGQGTKLEIKR , please. 693000

Recorded kon of C1_IPN92H0026-SG4GK/IPN93L0021-SK1 (antibody, human IgG4 S228P, kappa, name in Kabat numbering, V domains shown, also called IPN92H0026/IPN93L0021) VH: EVMLVESGGGLVKPGGSLRLSCAASGFTFSNYAMSWVRQAPGKGLEWVATISSGGSHTYYLDSVKHRFTISRDNSKDTLYLQMNSLRAEDTALYYCARLFTGYAMDYWGQGTLVTVSS VL: QIVLTQSPATLSLSPGERATLSCTASSSVSSSYLHWYQQKPGKAPKLWIYSTSNLASGVPSRFSGSGSGTDYTLTISSLQPEDFATYYCHQYHRLPPITFGQGTKLEIKR , please. 763000

# query: kon of entry C1_IPN009VH2-SG4GK/IPN93L0028-SK1 (antibody, human IgG4 S228P, kappa, name in Kabat numbering, V domains shown, also called IPN009VH2/IPN93L0028) VH: EVMLVESGGGLVKPGGSLRLSCAASGFTFSNYAMSWVRQAPGKGLEWVATISSGGSHTYYLDSVKGRFTISRDNSKDTLYLQMNSLRAEDTALYYCARLFTGYAMDYWGQGTLVTVSS VL: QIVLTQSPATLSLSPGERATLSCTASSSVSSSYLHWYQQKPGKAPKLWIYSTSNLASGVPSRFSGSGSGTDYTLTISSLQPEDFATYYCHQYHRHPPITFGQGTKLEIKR 534000

So what does the record say about kon for C1_IPN92H0033-SG4GK/IPN93L0031-SK1 (antibody, human IgG4 S228P, kappa, name in Kabat numbering, V domains shown, also called IPN92H0033/IPN93L0031) VH: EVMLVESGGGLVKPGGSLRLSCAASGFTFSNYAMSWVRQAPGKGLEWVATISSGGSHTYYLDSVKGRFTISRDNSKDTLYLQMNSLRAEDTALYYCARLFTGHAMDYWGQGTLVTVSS VL: QIVLTQSPATLSLSPGERATLSCTASSSVSSSYLHWYQQKPGKAPKLWIYSTSNLASGVPSRFSGSGSGTDYTLTISSLQPEDFATYYCHQYHRHHPITFGQGTKLEIKR ? 807000
